Just for reference, patent US20100261620A1 is where these values come from.

Below is a list of entries, each paired with its recorded kon value.
target-under-test: IL-13 (Homo sapiens (Human), UniProt P35225 35-146, limits assumed)
Sequence (P35225 35-146 limits assumed): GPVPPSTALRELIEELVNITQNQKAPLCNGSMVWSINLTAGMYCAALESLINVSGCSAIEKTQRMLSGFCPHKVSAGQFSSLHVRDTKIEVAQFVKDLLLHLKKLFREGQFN
assay-notes: Biacore
Numeric only. Scale: M⁻¹ s⁻¹

Sample records with kon:
M474 (antibody, V domains shown, anti-IL-13, human IgG1) VH: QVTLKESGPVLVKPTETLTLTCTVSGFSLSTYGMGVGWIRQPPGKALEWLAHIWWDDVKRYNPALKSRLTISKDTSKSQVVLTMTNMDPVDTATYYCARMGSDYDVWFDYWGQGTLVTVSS VL: EIVLTQSPATLSLSPGERATLSCRASKSISKYLAWYQQKPGQAPRLLIYSGSTLQSGIPARFSGSGSGTDFTLTISSLEPEDFAVYYCQQHDLGPYTFGQGTKLEIK : 950000
M451 (antibody, V domains shown, anti-IL-13, human IgG1) VH: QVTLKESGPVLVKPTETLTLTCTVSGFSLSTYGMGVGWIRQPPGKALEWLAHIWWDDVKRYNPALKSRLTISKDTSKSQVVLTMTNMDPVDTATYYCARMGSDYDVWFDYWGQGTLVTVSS VL: EIVLTQSPATLSLSPGERATLSCRASKSISKYLAWYQQKPGQAPRLLIYSGSTLQSGIPARFSGSGSGTDFTLTISSLEPEDFAVYYCQQPLDVPYTFGQGTKLEIK : 1.88e+06

Next:
I have this binder here, M450 (antibody, V domains shown, anti-IL-13, human IgG1) VH: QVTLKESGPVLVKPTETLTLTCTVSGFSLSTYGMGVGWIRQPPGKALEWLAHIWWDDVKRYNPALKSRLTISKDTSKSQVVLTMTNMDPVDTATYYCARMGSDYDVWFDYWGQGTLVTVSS VL: EIVLTQSPATLSLSPGERATLSCRASKSISKYLAWYQQKPGQAPRLLIYSGSTLQSGIPARFSGSGSGTDFTLTISSLEPEDFAVYYCQQHDPGPYTFGQGTKLEIK , and I need its recorded kon. 1.71e+06
